// provenance: the supplement of paper PMC4862054

- Test system: CAL-148
- METHOD DESCRIPTION: normalised viability (% of control), CellTiter-Blue; higher = more viable cells (about 100 = DMSO control)
- RECORDED CONDITIONS: 30 nM; incubation time: 72 h
Could you please mark true (1) for values of normalised viability below 90% and false (0) for values at or above it?

Below are worked cases with known answers.
• CN(C)CCOc1ccc(/C(=C(/CCCl)c2ccccc2)c2ccccc2)cc1 = false (0)
• COCC[n+]1c2c(n(Cc3cnccn3)c1C)C(=O)c1ccccc1C2=O = true (1)
• O=C(Nc1cccnc1)N1CCC(Cc2cccc(Oc3ccc(C(F)(F)F)cn3)c2)CC1 = true (1)

Alright, here's another compound for you.
Asked: Item O=C(/C=C/c1cccc(S(=O)(=O)Nc2ccccc2)c1)NO : normalised viability beneath 90%, strictly?
Given back: false (0)

* * *

- System: CAL-120
- METHOD DESCRIPTION: normalised response (% of control), CellTiter-Glo; higher = more viable cells (100 = DMSO, 0 = benzethonium chloride kill control)
- RECORDED CONDITIONS: incubation time: 72 h
MEASURED ATTRIBUTE: normalised response
Please answer in the form of a number followed by its unit of measurement.

Please review the following examples before continuing.
- CNC(=O)c1cc(Oc2ccc(NC(=O)Nc3ccc(Cl)c(C(F)(F)F)c3)c(F)c2)ccn1 [Regorafenib] (1 nM): 94.1%
- S=P(N1CC1)(N1CC1)N1CC1 [Thio-TEPA] (5 nM): 95.4%
- Oc1ccc2c(c1)CC[C@H](c1ccccc1)[C@@H]2c1ccc(OCCN2CCCC2)cc1 [Lasofoxifene] (100 nM): 107%

Moving on to another molecule below.
Asked: Which normalised response is reported with CAL-120 for this entry: Oc1ccc2c(c1)CC[C@H](c1ccccc1)[C@@H]2c1ccc(OCCN2CCCC2)cc1 [Lasofoxifene] (0.1 nM) ?
Given back: 107%

* * *

Parameter: normalised response. Scope: all listed entries.
- Test system: HCC1937
- METHOD DESCRIPTION: normalised response (% of control), CellTiter-Glo; higher = more viable cells (100 = DMSO, 0 = benzethonium chloride kill control)
- RECORDED CONDITIONS: incubation time: 72 h
Output spec: scalar in %, unitless text.

Please review the following examples before continuing.
* CCOC(=O)CCNc1cc(N2CCc3ccccc3CC2)nc(-c2ccccn2)n1 [GSK-J4] (10 nM) | 93.1
* Cc1ccc(NC(=O)c2ccc(CN3CCN(C)CC3)cc2)cc1Nc1nc(-c2cccnc2)cs1 [Masitinib] (10 nM) | 97.4
* COCC1(CO)C(=O)C2CCN1CC2 (stereo unspecified) [Prima-1 Met] (10 nM) | 99
* CCn1c(-c2nonc2N)nc2cnc(Oc3cccc(NC(=O)c4ccc(OCCN5CCOCC5)cc4)c3)cc21 (1000 nM) | 98.2
* CO[C@H]1C[C@@H]2CC[C@@H](C)[C@@](O)(O2)C(=O)C(=O)N2CCCC[C@H]2C(=O)O[C@H]([C@H](C)C[C@@H]2CC[C@@H](OP(C)(C)=O)[C@H](OC)C2)CC(=O)[C@H](C)/C=C(\C)[C@@H](O)[C@@H](OC)C(=O)[C@H](C)C[C@H](C)/C=C/C=C/C=C/1C [Ridaforolimus] (0.1 nM) | 93.1

# input for lookup
Asked: Entry COc1cc2ncnc(Nc3ccc(F)c(Cl)c3)c2cc1OCCCN1CCOCC1 [Gefitinib] (10 nM) , system HCC1937: what normalised response was measured?
Given back: 98.3

* * *

- Tested on: MDA-MB-453
- METHOD DESCRIPTION: normalised response (% of control), CellTiter-Glo; higher = more viable cells (100 = DMSO, 0 = benzethonium chloride kill control)
- RECORDED CONDITIONS: incubation time: 72 h
Overview of reported normalised response across a group of compounds:
Give the quantity in %, number only.

* c1ccc2c(CCNc3ccc(Nc4ccncc4)cc3)c[nH]c2c1 [Serdemetan] (100 nM) | 106
* CN(C)c1nc(N(C)C)nc(N(C)C)n1 [Altretamine] (100 nM) | 105
* O=P1(N(CCCl)CCCl)NCCCO1 (centres undefined) [Cyclophosphamide] (400 nM) | 108

Asked: Name the recorded normalised response for Cc1cc(Nc2cc(CN3CCOCC3)c3nc(C)c(Cc4ccc(Cl)cc4F)n3n2)n[nH]1 [Gandotinib] (100 nM) .
Given back: 104

* * *

- System: MDA-MB-453
- METHOD DESCRIPTION: normalised response (% of control), CellTox Green; higher = less cell death (100 = DMSO, 0 = benzethonium chloride kill control)
- RECORDED CONDITIONS: incubation time: 72 h
MEASURED ATTRIBUTE: normalised response (%)
Kindly answer with a numeric value in %, unit omitted.

* CO[C@H]1C[C@@H]2CC[C@@H](C)[C@@](O)(O2)C(=O)C(=O)N2CCCC[C@H]2C(=O)O[C@H]([C@H](C)C[C@@H]2CC[C@@H](OP(C)(C)=O)[C@H](OC)C2)CC(=O)[C@H](C)/C=C(\C)[C@@H](O)[C@@H](OC)C(=O)[C@H](C)C[C@H](C)/C=C/C=C/C=C/1C [Ridaforolimus] (1 nM) | 101
* c1ccc2c(CCNc3ccc(Nc4ccncc4)cc3)c[nH]c2c1 [Serdemetan] (1000 nM) | 102
* COc1cc2/c(=N/c3ccc(Br)cc3F)nc[nH]c2cc1OCC1CCN(C)CC1 [Vandetanib] (100 nM) | 90.5
* COc1cc(O)c2c(c1)/C=C/C[C@H](O)[C@H](O)C(=O)/C=C\C[C@H](C)OC2=O [(5Z)-7-Oxozeaenol] (100 nM) | 102
* CN(C)CCOc1ccc(/C(=C(/CCCl)c2ccccc2)c2ccccc2)cc1 [Toremifene] (100 nM) | 106

Asked: # get_value(readout= normalised response, system= MDA-MB-453) for COc1cc2c(NC3CCN(C(C)C)CC3)nc(N3CCC(F)(F)CC3)nc2cc1OCCCN1CCCC1 [UNC0642] (1000 nM)
Given back: 102

* * *

- System: SK-BR-3
- METHOD DESCRIPTION: normalised response (% of control), CellTiter-Glo; higher = more viable cells (100 = DMSO, 0 = benzethonium chloride kill control)
- RECORDED CONDITIONS: incubation time: 72 h
Output: class label from normalised response. Mapping: LOW: < 30%; MID: ≥ 30% and < 70%; HIGH: ≥ 70%

* Cc1cc(Nc2cc(CN3CCOCC3)c3nc(C)c(Cc4ccc(Cl)cc4F)n3n2)n[nH]1 [Gandotinib] (10000 nM) | MID
* Nc1cc(C(F)(F)F)c(-c2cc(N3CCOCC3)nc(N3CCOCC3)n2)cn1 [Buparlisib] (10000 nM) | HIGH
* CCOC(=O)CCNc1cc(N2CCc3ccccc3CC2)nc(-c2ccccn2)n1 [GSK-J4] (100000 nM) | LOW
* Oc1ccc2c(c1)CC[C@H](c1ccccc1)[C@@H]2c1ccc(OCCN2CCCC2)cc1 [Lasofoxifene] (1000 nM) | HIGH
* COc1cc(OC2CCN(C)CC2)ccc1Nc1ncc2c(n1)n(C1CCCC1)c(=O)n2C [AZ 3146] (10000 nM) | MID

Asked: Which of the defined bands does the recorded normalised response of CNC(=O)c1ccc(N2C(=S)N(c3ccc(C#N)c(C(F)(F)F)c3)C(=O)C2(C)C)cc1F [Enzalutamide] (10000 nM) sit within?
Given back: HIGH

Asked: Sort C=C1C[C@@H]2[C@H](CC[C@]3(C)C(=O)CC[C@@H]23)[C@@]2(C)C=CC(=O)C=C12 [Exemestane] (10000 nM) into one of the categories.
Given back: HIGH

Asked: Sort c1ccc2c(CCNc3ccc(Nc4ccncc4)cc3)c[nH]c2c1 [Serdemetan] (10000 nM) into one of the categories.
Given back: LOW

Asked: Using the reported normalised response, which band applies to O=C(Nc1cccnc1)N1CCC(Cc2cccc(Oc3ccc(C(F)(F)F)cn3)c2)CC1 [PF-3845] (10000 nM) ?
Given back: MID

Asked: Which bin should I file Cc1ccc(NC(=O)c2ccc(CN3CCN(C)CC3)cc2)cc1Nc1nc(-c2cccnc2)cs1 [Masitinib] (10000 nM) under?
Given back: MID

Asked: Note: place this compound into its band. Item: O=C(/C=C/c1cccc(S(=O)(=O)Nc2ccccc2)c1)NO [Belinostat] (10000 nM)
Given back: LOW

Asked: Could you tell me which band CC(C)C[C@@H](C(=O)N[C@H](C(=O)OC1CCCC1)c1ccccc1)[C@H](O)C(=O)NO [Tosedostat] (10000 nM) belongs to?
Given back: HIGH

Asked: Bin? Cc1[nH]c2ccccc2c1CCNCc1ccc(/C=C/C(=O)NO)cc1 [Panobinostat] (1000 nM)
Given back: LOW
